System: COLO 205 colon
Experiment: NCI tumour cell line growth inhibition, 48 h
Quick reference for TGI among some compounds

As a guide, the following entries are already answered.
The reported TGI of the compound O=S(=O)(NC1=NCCN1C(=S)SN1CCn2c1nsc2=S)c1cccc2ccccc12 was > 100 µM

Kindly note the recorded TGI for COc1cc(C(C)O)c(S(=O)(=O)CC(C)O)nn1 (stereo not given) , which is > 100 µM

Per the record, O=C(NOC[C@H](O)CO)c1ccc(F)c(F)c1Nc1ccc(I)cc1F has TGI of > 100 µM

Next:
CC(C)c1c(-c2ccccc2)nc2c(C#N)c[nH]n2c1=O has a reported TGI of 75.2 µM

Query Nc1ccccc1C#C/C=C\C#Cc1ccc(OCCCNC(=O)c2cc3ccccc3[nH]2)cc1 yields TGI of > 100 µM

###

Some compounds, each annotated with its measured TGI.
Tested on: NCI-H522 lung
Test: NCI tumour cell line growth inhibition, 48 h

Lab note: CCNC(=O)COc1ccc(Br)cc1Br gave TGI of > 100 µM

GET /value?item= O=C(O)C(O)C(O)C(=O)O (stereo not given) &field=TGI returns > 100 µM

# TGI (compound: COc1ccc(C(c2c(O)c3ccccc3n(-c3ccccc3)c2=O)c2c(O)c3ccccc3n(-c3ccccc3)c2=O)cc1 ) is > 100 µM

Data point: O=C1/C(=C\c2cccc(Oc3ccccc3)c2)SC(c2ccccc2)N1c1ccccc1 (stereo not given) ; TGI = > 100 µM

Memo: Cc1cnc2sn(-c3ccc([N+](=O)[O-])cc3)c(=O)c2c1 , reported TGI: > 100 µM

// TGI value for Brc1ccc(C[P+]2(c3ccccc3)CCCCC2)cc1 : > 100 µM

Query O=C(O)CCC(=O)c1ccc2c(c1)C(C(=O)O)CC2 (stereo not given) yields TGI of > 100 µM

###

Tested on: SR leukemia
Test: NCI tumour cell line growth inhibition, 48 h
MEASURED PARAMETER: TGI

For CCOC(=O)C1=C(Nc2ccc(Cl)cc2Cl)OCC1=O the compound record lists TGI as > 100 µM

response.value for COC(=O)c1ccc(/C=C2\Oc3ccccc3C2=O)cc1 (field: TGI) = > 100 µM

TGI in this record for COc1cccc(/C(C#N)=C/c2nc3c(N4CCOCC4)nc(Cl)nc3n2C)c1 : 2.44 µM

Lab book: TGI of CCOC(=O)C(Cc1c[nH]c2c(N(CCO)CCO)cccc12)(NC(C)=O)C(=O)OCC noted as 890 µM

Value of TGI reported for the compound CCNc1cc(-c2cccc(OC(F)(F)F)c2)nc2ccc(N3CCCC3)cc12 is 5 µM

Kindly consider the entry below.
Recorded TGI (compound COc1ccc(-c2ccncc2)cc1C(N)=O ): > 25 µM

###

System: KM12 colon
Experiment: NCI tumour cell line growth inhibition, 48 h
MEASURED PARAMETER: TGI

See these solved cases before continuing.
For this compound ( CS(=O)(=O)OCCN(CCOS(C)(=O)=O)c1ccc(C=Nc2cccc(Cl)c2)cc1 ), measured TGI is > 100 µM

Entry under test: Cn1c(-c2c(N)n(Nc3cccc(Cl)c3)c3nc(C#N)c(C#N)nc23)nc2ccccc21 . Its TGI was 26.1 µM

TGI reported for this compound Clc1ccc(C2=NN=C3C(c4ccccc4)=Nc4ccccc4N3C2)cc1 : > 100 µM

Okay, next one:
Item: CCCCCCCCCCCCCCCCNC(=O)C(=O)/C=C(\O)c1ccc(C)cc1 | TGI: > 10 µM

###

The following molecules are listed with their measured TGI values.
Test system: NCI-H226 lung
Assay: NCI tumour cell line growth inhibition, 48 h

Example entries and their recorded answers appear below.
Noted for C=C(CC(NC(=O)c1ccc(C(CC)Cc2cnc3nc(N)nc(N)c3n2)cc1)C(=O)O)C(=O)O (stereo not given) : its TGI reads > 100 µM

For this molecule ( CCOC(=O)c1c(N=P(c2ccccc2)(c2ccccc2)c2ccccc2)nnc(-c2ccccc2)c1-c1ccccc1 ), measured TGI is > 100 µM

Next:
For record Cn1c(C(=O)c2ccncc2)cc2ccccc21 the listed TGI is > 100 µM

Sample NC1=C(NC(=O)Cc2ccccc2F)C(=O)c2ccccc2C1=O ; TGI observed: > 100 µM

Just so you know, measured TGI for CO/N=C(/C)c1cccc(Nc2nc3ccccc3c3[nH]c4ccccc4c23)c1 came out at 33.2 µM

###

Reported TGI values are given for each entry in this list.
System: SNB-19 CNS
Test: NCI tumour cell line growth inhibition, 48 h

The measured TGI that NC(=O)N/N=C(/CC1C(=O)Oc2ccccc21)c1ccccc1O (stereo not drawn) showed for SNB-19 CNS is > 100 µM

GET /values?item= O=[N+]([O-])c1cc(Cl)c2[nH]c3c(Cl)cc([N+](=O)[O-])cc3c2c1 &system= SNB-19 CNS returns TGI: > 100 µM

SNB-19 CNS TGI of Cc1c2c3ccccc3nc-2n(C)c2ccccc12 is 44.5 µM

Further cases:
Record for O=C1/C(=C/c2cccc(Br)c2)COc2ccc(O)cc21 under target or system SNB-19 CNS: TGI reported as 7.47 µM

So the reported TGI for COc1ccc(NC(=O)CSC2=C(Nc3cccc(Br)c3)C(=O)N(Cc3ccccc3)C2=O)cc1Cl , on SNB-19 CNS, turned out to be > 100 µM

Here C/C(=N\N=C(\N)SB(F)F)c1ccc2ccccc2c1 was tested on SNB-19 CNS, and its TGI came to > 100 µM

SNB-19 CNS TGI of CN(C)c1ccc(/C=C2\N=C(NNc3ccccc3)NC2=O)cc1 is > 100 µM

Query O=C(NOC[C@H](O)CO)c1ccc(F)c(F)c1Nc1ccc(I)cc1F on SNB-19 CNS; TGI returned: > 100 µM

Form field TGI for item CC(NC(=O)NC(C)(C)C)NC(=O)C(N)CC(=O)O (stereo not drawn) on SNB-19 CNS: > 100 µM

Fill in: SNB-19 CNS TGI for CC(C)(C)OC(=O)NC1CC2(C=C(Br)C(=O)C(Br)=C2)OC1=O (stereo not drawn) = 38.6 µM

###

System: SF-268 CNS
Assay: NCI tumour cell line growth inhibition, 48 h
Property: TGI; scope: individual compounds

Please review the entries below; each comes with its answer.
In plain terms, COc1ccc(-c2ccncc2)cc1C(N)=O has a documented TGI of > 25 µM

Record Nc1nc(Cl)c(N)c(NCC2(CO)CC2)n1 . Reported TGI: > 100 µM

Field TGI (entry CC(=O)OC12C3C4C1C1C2C3C41OC(C)=O (configuration not stated) ) reads > 100 µM

compound COc1ccc(NC(=O)CC2SC(=Nc3ccccc3C)NC2=O)c([N+](=O)[O-])c1 (configuration not stated) , TGI observed: > 100 µM

For this compound ( Cc1ccc2c(c1)C(=O)c1nc(C)ccc1C2=O ), measured TGI is > 100 µM

Per the records, this compound ( c1cc2c(cc1NC1=NCCO1)OCO2 ) has TGI equal to > 100 µM

Others:
Consider COc1ccc(-n2c(N)c(C#N)[nH]c2=O)cc1 . Its measured TGI is > 10 µM

###

# TGI per record follows
Tested on: SK-MEL-2 melanoma
Assay: NCI tumour cell line growth inhibition, 48 h

Examples with answers:
TGI measured on Brc1ccc(C[P+]2(c3ccccc3)CCCCC2)cc1 = > 100 µM

Form: compound = FC(F)(c1ccc2ncccc2c1)c1nnc2ccc(-c3ccncc3)nn12 ; TGI = > 100 µM

Lab book: TGI of CCCCCCCCCCCCCCCCCC1=NC(C)(C)CN1CC(C)O (stereo not given) noted as 31 µM

Noted for O=S(=O)(O)c1cc(N=Nc2c(O)ccc3ccccc23)ccc1/C=C/c1ccc(N=Nc2c(O)ccc3ccccc23)cc1S(=O)(=O)O : its TGI reads > 100 µM

Please look at the following compound next.
The compound listed as COc1cc(C2SCCCCCCCCCCSC(c3ccc(O)c(OC)c3)SCCCCCCCCCCS2)ccc1O (stereo not given) has a reported TGI of > 100 µM

###

Tested on: BT-549 breast
Assay: NCI tumour cell line growth inhibition, 48 h
MEASURED PARAMETER: TGI

A selection of reference data follows.
# compound COc1cc2ncn(-c3cc(OCc4ccccc4C(F)(F)F)c(C(=O)N(C)C)s3)c2cc1OC ; its TGI = > 25 µM

Reported TGI ( CC(=O)c1c(C)nc(SSc2nc(C)c(C(C)=O)c(-c3ccc(Cl)cc3)c2C#N)c(C#N)c1-c1ccc(Cl)cc1 ) = 97.2 µg/mL

Per the record, CN(C)c1ccc(/C=C2\N=C(NNc3ccccc3)NC2=O)cc1 has TGI of 83.2 µM

Note to self: TGI recorded for COc1ccccc1C#Cc1ccccc1C#CCCCCO was 33.4 µM

---
Data point: COC(=O)C1C(O)CCC2CN3CCc4c([nH]c5ccccc45)C3CC21 (centres undefined) ; TGI = > 100 µM

Kindly note the recorded TGI for C/C(=N\N=C(\N)SB(F)F)c1ccc2ccccc2c1 , which is > 100 µM

Data point: CCOC(=O)C(Cc1c[nH]c2c(N(CCO)CCO)cccc12)(NC(C)=O)C(=O)OCC ; TGI = > 1000 µM

// sample O=C1CC2C(=O)c3ccccc3CC2c2ccccc21 (centres undefined) , its TGI was > 100 µM

Per the record, CCOC(=O)c1[nH]c(Br)c(-c2ccc(OC)c(OC)c2)c1Br has TGI of 3.16 µM
